FYI, the data here is from patent US8084467B2.

biological target: CB1 cannabinoid receptor (Rattus norvegicus, UniProt P20272); construct: membranes were prepared from rat forebrain membranes; from tissue; host or cells: rat forebrain; experiment: CB1 receptor binding, rat forebrain membranes, [3H] CP-55,940 displacement; details: rat forebrain membranes, 0.8 nM [3H] CP-55,940; read-out: affinities Ki CB1
Sequence (P20272 whole entry): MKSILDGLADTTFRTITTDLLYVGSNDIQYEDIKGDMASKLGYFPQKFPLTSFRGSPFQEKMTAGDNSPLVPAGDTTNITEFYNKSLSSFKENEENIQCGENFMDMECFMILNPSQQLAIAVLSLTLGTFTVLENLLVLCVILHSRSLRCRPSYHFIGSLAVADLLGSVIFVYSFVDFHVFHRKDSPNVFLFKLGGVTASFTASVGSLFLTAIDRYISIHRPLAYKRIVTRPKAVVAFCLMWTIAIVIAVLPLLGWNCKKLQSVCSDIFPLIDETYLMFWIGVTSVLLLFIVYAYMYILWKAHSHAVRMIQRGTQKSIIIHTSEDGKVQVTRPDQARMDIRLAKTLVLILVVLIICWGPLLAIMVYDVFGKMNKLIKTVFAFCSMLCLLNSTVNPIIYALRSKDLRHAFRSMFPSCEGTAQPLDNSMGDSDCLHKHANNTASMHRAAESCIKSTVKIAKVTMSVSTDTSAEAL
pKi: −log10 of the molar value.
Endpoint: pKi

compound=CCOCc1c(C(=O)NC23CC4CC(CC(C4)C2)C3)nn(-c2ccc(Cl)cc2Cl)c1-c1ccc(Br)cc1 endpoint=pKi measured_number=6.98
compound=Cc1c(C(=O)NN2CCCCC2)nn(-c2ccc(Cl)cc2Cl)c1-c1ccc(-c2ccccc2Cl)cc1 endpoint=pKi measured_number=7.07
compound=CN(C)CCOCc1c(C(=O)NC2CCCCC2)nn(-c2ccc(Cl)cc2Cl)c1-c1ccc(Br)cc1 endpoint=pKi measured_number=7.62
compound=Cn1nnnc1-c1ccc(-c2c(CO)c(C(=O)NC3CCCCC3)nn2-c2ccc(Cl)cc2Cl)cc1 endpoint=pKi measured_number=6.93
compound="O=C(NN1CCCCC1)c1nn(-c2ccc(-c3cccnc3)cc2Cl)c(-c2ccc(-c3cccnc3)cc2)c1CO [Compound 3-20]" endpoint=pKi measured_number=6.81
compound=Cc1c(C(=O)NN2CCCCC2)nn(-c2ccc(Cl)cc2Cl)c1-c1ccc(C#N)cc1 endpoint=pKi measured_number=7.66
compound=CNCc1c(C(=O)NC2CCCCC2)nn(-c2ccc(Cl)cc2Cl)c1-c1ccc(Br)cc1 endpoint=pKi measured_number=6.76
compound=CN(C(=O)c1nn(-c2ccc(Cl)cc2Cl)c(-c2ccc(-c3ccncc3)cc2)c1CO)C1CCCCC1 endpoint=pKi measured_number=7.05
compound=Cc1c(NC(=O)C2CCCCC2)nn(-c2ccc(Cl)cc2Cl)c1-c1ccc(Br)cc1 endpoint=pKi measured_number=5.37
compound=Cc1c(C(=O)N(C)C2CCCCC2)nn(-c2ccc(Cl)cc2Cl)c1-c1ccc(-c2ccncc2)cc1 endpoint=pKi measured_number=6.72
compound=O=C(NN1CCCCC1)c1nn(-c2ccc(Cl)cc2Cl)c(-c2ccc(-c3nnn[nH]3)cc2)c1CO endpoint=pKi measured_number=5.73
compound=CN(C(=O)Nc1nn(-c2ccc(Cl)cc2Cl)c(-c2ccc(Br)cc2)c1CO)C1CCCCC1 endpoint=pKi measured_number=6.53
compound="O=C(NN1CCCCC1)c1nn(-c2ccc(Cl)cc2Cl)c(-c2ccc(-c3cccnc3)cc2)c1CO [Compound 3-21]" endpoint=pKi measured_number=7.12
compound=CN(C(=O)c1nn(-c2ccc(Cl)cc2Cl)c(-c2ccc(-c3nnn(C)n3)cc2)c1CO)C1CCCCC1 endpoint=pKi measured_number=6.68
compound=Cc1c(NC(=O)N2CCCCC2)nn(-c2ccc(Cl)cc2Cl)c1-c1ccc(Br)cc1 endpoint=pKi measured_number=7.33

---

# key: entry, value: Ki
molecular target: CB2 receptor (Mus musculus); construct: membranes were prepared from frozen mouse spleen; from tissue; host or cells: mouse spleen; experiment: CB2 receptor binding, mouse spleen membranes, same manner as the CB1 binding assay; conditions: mouse spleen membranes, [3H] CP-55,940; read-out: affinities Ki CB2
Sequence (P47936 whole entry): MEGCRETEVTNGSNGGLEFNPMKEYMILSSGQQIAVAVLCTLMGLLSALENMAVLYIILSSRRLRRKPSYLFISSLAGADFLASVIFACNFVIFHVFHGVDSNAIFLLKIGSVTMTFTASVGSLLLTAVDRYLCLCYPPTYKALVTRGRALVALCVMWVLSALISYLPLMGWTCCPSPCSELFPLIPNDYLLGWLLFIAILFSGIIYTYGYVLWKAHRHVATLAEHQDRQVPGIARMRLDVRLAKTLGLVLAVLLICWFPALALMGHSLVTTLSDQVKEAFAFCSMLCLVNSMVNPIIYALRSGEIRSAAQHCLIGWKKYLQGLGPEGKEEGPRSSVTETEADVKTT
Endpoint: Ki (µM)

molecule=Cc1c(C(=O)NN2CCCCC2)nn(-c2ccc(Cl)cc2Cl)c1-c1ccc(-c2ccc(Cl)cc2)cc1 endpoint=Ki measured_number=1.59
molecule=Cc1c(C(=O)NN2CCCCC2)nn(-c2ccc(Cl)cc2Cl)c1-c1ccc(-c2cccc(Cl)c2)cc1 endpoint=Ki measured_number=0.741
molecule=CN(C(=O)Nc1nn(-c2ccc(Cl)cc2Cl)c(-c2ccc(Br)cc2)c1CO)C1CCCCC1 endpoint=Ki measured_number=4.47
molecule=CN(C(=O)c1nn(-c2ccc(Cl)cc2Cl)c(-c2ccc(-c3ccncc3)cc2)c1CO)C1CCCCC1 endpoint=Ki measured_number=0.294
molecule=Cc1c(C(=O)NN2CCCCC2)nn(-c2ccc(Cl)cc2Cl)c1-c1ccc(C#N)cc1 endpoint=Ki measured_number=4.69
molecule=Cc1c(NC(=O)NC2CCCCC2)nn(-c2ccc(Cl)cc2Cl)c1-c1ccc(Br)cc1 endpoint=Ki measured_number=4.32
molecule=O=C(NC1CCCCC1)c1nn(-c2ccc(Cl)cc2Cl)c(-c2ccc(Br)cc2)c1CO endpoint=Ki measured_number=2.12
molecule="Cc1c(C=Cc2ccccc2)nn(-c2ccc(Cl)cc2Cl)c1-c1ccc(Br)cc1 [Compound 1-23]" endpoint=Ki measured_number=16.4
